All values here come from patent US20250376535A1.

Recorded log10 of koff values for a group of binders are listed next.
Tested system: T1, human serum albumin (human, UniProt P02768 25-609)
T1 construct: also called HSA
Method notes: BLI (Gator), His-tagged VHH on anti-His sensor, HSA 100 nM in solution
Recall that a logarithmic scale is used here: each number is log10 of koff in s⁻¹.

Some entries whose results are on file:
Binder	Test result
MSA1 (VHH, Llama single domain antibody with C-terminal His-tag, made in HEK293; not shown: C-terminal His-tag) VHH: EVQLVESGGGLAQAGGSLRLSCADSGHSFSLYAMAWFRQTPEKEREFVAAISSSGGDTYYADSVKGRFTISRENAKNTAYLQMDSLKPGDTAVYFCAGNYYTSQLMRGMYEHWGQGTQVTVSS	-1.66
MSA4 (VHH, Llama single domain antibody with C-terminal His-tag, made in HEK293; not shown: C-terminal His-tag) VHH: EVQLVEFGGGLVQAGGSLRLSCAASGRTDSAYRMGWFRQAPGKEREFVSAINWSDGRTVYLDSVKGRFTISRDNAKNMVYLQMNSLKPEDTAVYYCAADPDSRLYYTVPQNYDYWGQGTQVTVSS	-3.00
MSA2 (VHH, Llama single domain antibody with C-terminal His-tag, made in HEK293; not shown: C-terminal His-tag) VHH: EVQLVESGGGLAQAGGFLRLSCADSGHSFSLYAMAWFRQTPEKEREFVAAISSSGGDTYYADSVKGRFTISRENAKNTVYLQMDSLKPGDTAVYFCAGNYYTSQLMRGMYEHWGQGTQVTVSS	-1.65
MSA B1 (VHH, Llama single domain antibody with C-terminal His-tag, made in HEK293; not shown: C-terminal His-tag) VHH: EVQLVESGGGLVQPGGSLHLSCAASRLTTGVTFSDYGMAWFRQAPGAERELLANINWSGQYTNYRDSVKGRAAIFRDNAKNTLYLNINSLKAEDTAVYYCAASSRKYGPGIKSQYEWWGQGTQVTVSS	-2.29

Shift focus to the following entry.
What does the data say about its log10 of koff? Entry: MSA6 (VHH, Llama single domain antibody with C-terminal His-tag, made in HEK293; not shown: C-terminal His-tag) VHH: QVQLVESGGGLVQPGGSLRLSCAASGLPSRVMGWFRQAAGKEREFVASISVSGIDTRYGDSVKGRFTISRDNTKSSLYLQMNSLKPEDTAVYYCAATDGQGNYRHWGQGTQVTVSS
-2.90
